Reported Ratio IC50 by item:
# assayRemarks: Ratio of IC50 for CHO cells to IC50 for Plasmodium falciparum

smilesRecord | Ratio IC50
C[n+]1ccn(CCCOc2ccc(OCCCn3cc[n+](C)c3)cc2)c1.[I-].[I-] | 2511
Cl.Cl.c1cn(CCCCCCCCn2ccnc2)cn1 | 23
C[n+]1ccn(CCCCCCCCCCCCCCCn2cc[n+](C)c2)c1.[I-].[I-] | 600
CC[n+]1ccn(CCCCCCCCCCCCn2cc[n+](CC)c2)c1.[I-].[I-] | 2833
CCC[n+]1ccn(CCCCCCCCCCCCn2cc[n+](CCC)c2)c1.[I-].[I-] | 97500
